Reference for the values: a melting point compilation (Tetko et al.; mined from patent text by program, amines drawn as free bases though some values may be those of a salt)

Entries annotated with measured melting point

COMPOUND	melting point
COc1ccc(S(=O)(=O)C(Cc2cccnc2)(CC2CCCCC2)C(=O)NO)cc1 (centres undefined)	57 to 60 °C
CCCCCCCCCCCCCCCCCCNC(=O)NCCSc1ccc(O)cc1	121 °C
CCOC(=O)COc1ccc(C2=NNC(=O)NC2C)cc1 (centres undefined)	152 to 153 °C
CC(C)CNC(=O)[C@H](C)C[C@H](O)[C@H](CC1CCCCC1)NC(=O)[C@H](Cc1cscn1)NC(=O)[C@@H](CC(=O)N(C)Cc1ccccc1)Cc1ccccc1	118 to 120 °C
O=C1c2ccccc2C(=O)N1CCCCN1CCC(=C(c2ccccc2)c2ccccc2)CC1	102 to 103 °C
CC1(C(=O)Nc2ccc(-n3nc(C(F)(F)F)cc3C(F)(F)F)cc2)CC1(Cl)Cl (centres undefined)	143 to 145 °C
O=Cc1[nH]ccc1-c1ccc(I)cc1	153 to 154 °C
CSc1nn2c(N)cc(C3CC3)nc2c1S(=O)(=O)c1ccccc1	> 230 °C
COC(=O)c1cccc2[nH]cc(CC[N+](=O)[O-])c12	103 °C

----------
EXPERIMENTAL_ENDPOINT: melting point

COMPOUND	EXPERIMENTAL_ENDPOINT	ENDPOINT_RESULT
CC(C)=NOc1ccc([N+](=O)[O-])cc1	melting point	104 to 106 °C
COc1ccc(-c2cc(C#N)c(=O)[nH]c2C)cc1	melting point	258 to 259 °C
CC(C)N(C(=O)C(Cc1ccc(C=O)cc1)NC(=O)OC(C)(C)C)C(C)C (stereo not given)	melting point	152 °C
CC(C)(C)OC(=O)N1CCCN(c2c(F)c(F)nc(F)c2F)CC1	melting point	55 to 59 °C
O=S(=O)(CC(F)(F)F)Nc1ccc(N2CCN(c3ccc(OCC(O)(Cn4cncn4)c4ccc(Cl)cc4Cl)cc3)CC2)cc1 (stereo not given)	melting point	74 to 75 °C
CC[C@H](C)[C@H](NC(=O)[C@H](Cc1ccc(O)cc1)NC(=O)OC(C)(C)C)C(=O)NCCCBr	melting point	96 to 100 °C
Cc1ncc2ccc(-c3cccs3)nc2n1	melting point	175 to 180 °C
CN1C(C)(C)CC(N(CCCCCCN(C2CC(C)(C)N(C)C(C)(C)C2)P2OCC(C)(C)CO2)P2OCC(C)(C)CO2)CC1(C)C	melting point	103 °C
Cc1oc(-c2ccccc2)nc1CCOc1ccc(C[C@H](NC(=O)C(F)=Cc2ccccc2)C(=O)O)cc1Br	melting point	243 to 245 °C
CCOC(=O)c1cn2c3c(cccc3c1=O)C1CCCCC12 (stereo not given)	melting point	71 to 73 °C
CC(C)(C)CC(C)(C)c1ccc(Oc2cc3nc(-c4ccco4)oc3cc2[N+](=O)[O-])cc1	melting point	146 to 148 °C
CCCn1c(=O)c2[nH]c(C(C)(C)C)nc2n(CCNC(C)=O)c1=O	melting point	194 to 195 °C
ClCCOc1ccc(/C=C/c2nc3ccccc3o2)cc1	melting point	88 to 90 °C
CC(=NO)c1ncnc(OC(C)C)c1C	melting point	95.4 to 96.5 °C
COc1ccc(-c2nc(N)c(C(N)=O)nc2-c2ccc(=O)n(C(C)C)c2)cc1	melting point	244 °C
O=c1c2cn[nH]c2nc2n1CCS2	melting point	> 300 °C
O=C(O)c1cc2cccc(OCc3ccccc3)c2[nH]1	melting point	166 to 168 °C
Nc1ncnc2c1ncn2Cc1oc2ccc(F)cc2c(=O)c1-c1ccccc1	melting point	207 to 209 °C
CCCCCCCCCCCc1cc2ccc(C(=O)OCC)cc2[nH]1	melting point	84 to 86 °C
S=C(Nc1cccc(Cl)c1)N1CCSC1=Nc1cccc(Cl)c1	melting point	121 to 123 °C

----------
Entries annotated with measured melting point

COMPOUND	melting point
O=C1c2ccccc2CN1CCOc1ccc(CO)cc1	106 to 107 °C
CC(C)(C)N1CCN(Cc2ccc([N+](=O)[O-])cc2)S1(=O)=O	113 °C
COc1ccc(OCCO[N+](=O)[O-])c(C2NC(C(=O)O)CS2)c1 (stereo not given)	110 to 112 °C
N#Cc1ccc(CCc2ccc(OCc3ccc4ccccc4n3)cc2)cc1	156 to 158 °C
CC(=O)Nc1cccc(/C=C/C(=O)N2CC(CCl)c3c2cc(N)c2ccccc32)c1 (stereo not given)	> 250 °C
CC(=O)Oc1cc(COC(=O)c2ccccc2)cnc1C	57 °C
CCOC(=O)Cn1nc(O)c2ccccc21	181 to 182 °C
O=C(CC(CC1CCCCC1)C(=O)O)c1ccco1 (stereo not given)	91 to 94 °C
O=C(Nc1ccncc1)Nc1ccc(-c2nc(N3CCOCC3)c3nnn(C4CCOCC4)c3n2)cc1	332 °C
CCCc1c(OCCCCCCC#N)ccc(C(C)=O)c1O	64 to 66 °C

----------
Entries annotated with measured melting point

COMPOUND	melting point
CN1C(=O)CC[C@]2(C)c3ccc(-c4cccc(C=O)c4)cc3CC[C@@H]12	163 °C
Cc1oc(=O)c(Nc2ccccc2F)nc1Cl	126 to 129 °C
CC(O)(C(=O)Nc1ccc(Cl)cc1)c1ccc(F)cc1Cl (centres undefined)	167 °C
CCc1c(-c2ccc(OCc3ccccc3)cc2)c2c(COCCCCCN3CCCCC3)cc3c(OCc4ccccc4)ccc1n32	106 to 107 °C
CC(=O)N(O)C(C)c1cn(C)c2ccccc12 (centres undefined)	106 to 108 °C
Cc1cc(Cl)cc(C(=O)NCC2(C)CC2)c1NC(=O)c1cc(C(F)(F)F)nn1-c1ncccc1Cl	210 °C
COc1ccc(-n2c(=O)c(C(=O)O)nc3c(Cl)cccc32)cc1	198 to 200 °C
CCN(CC)CCOc1ccc(Nc2ncc3c(n2)N(C)C(=O)N(C(C)C)C3)cc1	154 °C
CCCC(O)c1cc2c(=O)n(NS(C)(=O)=O)c(=O)[nH]c2cc1C(F)(F)F (centres undefined)	223 to 226 °C

----------
EXPERIMENTAL_ENDPOINT: melting point

COMPOUND	ENDPOINT_RESULT
C(CCc1ccccc1)=C1CCN(Cc2nc3ccccc3[nH]2)CC1	163 to 165 °C
O=C1NCCc2ccc(OCCCCN3CCN(c4cccc5ccc(F)cc45)CC3)nc2N1	234 °C
COCCNC(=O)c1ccc(C(=O)NS(=O)(=O)c2ccccc2)cn1	190 to 191 °C
CCCc1cccc(-c2nc(C(C)C)n(C)n2)n1	48.6 °C
CCOP(=O)(CCOC(=O)c1c(I)c(NC(C)=O)c(I)c(NC(C)=O)c1I)OCC	249 to 251 °C
CC(=O)N[C@@H](CO)C(=O)NCc1ccc(N)cc1	158 to 160 °C
O=C(O)/C=C\C(=O)NCC(=O)N1c2ccccc2N(Cc2ccccc2)C(=O)[C@H]2CCC[C@H]21 (relative stereo)	207 to 209 °C
CCc1nc(Cl)c2sccc2n1	46 to 48 °C
NC(=O)c1c[nH]c2cccc(OCc3ccccc3)c12	176 °C
Cc1cccc(C)c1CCOCCCCCCNCc1c(CO)ccc(O)c1CO	83 to 86 °C

----------
Entries annotated with measured melting point

COMPOUND	melting point
CCOC(=O)c1cc(=O)c2c(OCC(O)COc3cccc(C(F)(F)F)c3)cccc2o1 (stereo not given)	70 to 75 °C
Cc1c(C#N)sc2nc(-c3ccc4c(c3)OCO4)nc(N(C)CCO)c12	195 to 197 °C
NC(=O)c1occc1C(=O)NC1CCN(Cc2ccc3ccccc3c2)CC1	157 to 159 °C
NS(=O)(=O)c1ccc(-c2cc(-c3nc(-c4ccc(C(F)(F)F)cc4F)cc(C(F)(F)F)n3)ccn2)s1	228 °C
CO[C@]1(c2cc(F)cc(OCc3ccc4c(ccc(=O)n4C)c3)c2)CCO[C@@H](C)C1	91 to 93 °C
O=C1c2ccc(-c3cccnc3)cc2CC1Cl (stereo not given)	103 to 105 °C
Cc1cc(Oc2cccc(C(F)(F)F)c2)nn1C(=O)Nc1ccc(F)c(F)c1F	102 to 104 °C
CC1(C)OCc2cc(Cl)cc(C(C)(O)c3cn(C(c4ccccc4)(c4ccccc4)c4ccccc4)cn3)c2O1 (stereo not given)	182 to 184 °C
CCCS(=O)(=O)N=C(NC)NCCSCc1[nH]cnc1C	73 to 74 °C
Cc1cn(CCCC(=O)O)c2ccccc12	82 to 84 °C
Cc1nc2cnc3ccccc3c2n1Cc1ccc(Cl)cc1	183 to 185 °C
COC(=O)c1cscc1NC(=O)COc1ccc(-c2ccccc2Cl)cn1	151 to 155 °C
CC1(CN2CCN(C(=O)OCc3ccccc3)CC2)Cn2cc([N+](=O)[O-])nc2O1 (stereo not given)	130 to 132 °C
CCOC(=O)c1nc(-c2ccccc2F)c(-c2ccc(=O)n(C(C)C)n2)s1	140 to 141 °C
O=C1CCCCc2cc(OCc3ccccc3)c(O)cc21	127 to 128 °C
CC(Oc1ccc(N(C)c2cnc3cc(Cl)ccc3n2)cc1)C(=O)O (stereo not given)	204 °C
CCOC(=O)c1cnc2c3c(ccc2c1)C(=O)CC=N3	250 to 252 °C
CCOc1ccccc1N1CCN(C(=O)Nc2nc3ccccc3nc2OCC)CC1	120 to 122 °C
OC1(c2nccnc2Cl)CN2CCC1CC2 (stereo not given)	215 to 216 °C
CCOC(=O)C(=O)c1cn(Cc2ccccc2)c2cc(-c3ccc(C(F)(F)F)cc3)ccc12	109 to 110 °C
